Target: FimH-CRD (Escherichia coli)
Construct: The first 177 amino acids of the FimH protein; thrombin tag (printed as 'fusion protein with thrombin') (cleaved yes); made in house; host or cells: bacteria (pET21b plasmid)
Test: Competitive binding assay by fluorescence polarization, assay 1 (compounds prepared by manual serial dilution)
assay.endpoint: Kd (nM)
Answer format: numeric, nM implied, no suffix.

Please review the entries below; each comes with its answer.
Cc1nnc(NC(=O)c2cccc([C@H]3O[C@H](CO)[C@@H](O)[C@H](O)[C@@H]3O)c2)s1 [Compound 25] :: 7
OC[C@H]1O[C@H](c2cccc(F)c2)[C@@H](O)[C@@H](O)[C@@H]1O [Compound 47] :: 40.6
COc1cccc([C@H]2O[C@H](CO)[C@@H](O)[C@H](O[C@H]3O[C@H](CO)[C@@H](O)[C@H](O)[C@@H]3O)[C@@H]2O)c1 [Compound 284] :: 166

Please find the next compound below.
Query: Kd lookup needed for OC[C@H]1O[C@H](c2ccccc2O)[C@@H](O)[C@@H](O)[C@@H]1O [Compound 45] , thanks.
Reply: 76.9

###

Biological target: FimH-CRD (Escherichia coli)
Construct: The first 177 amino acids of the FimH protein; thrombin tag (printed as 'fusion protein with thrombin') (cleaved yes); made in house; host or cells: bacteria (pET21b plasmid)
Assay: Competitive binding assay by fluorescence polarization, assay 2 (compounds prepared by robotics, plates frozen and thawed)
Lab note - cut at 20 nM for Kd: Y if strictly below, N if not.

Query: Check if Kd falls below 20 nM for `Cn1nccc1-c1ccc(-c2cccc([C@H]3O[C@H](CO)[C@@H](O)[C@H](O)[C@@H]3O)c2)cc1` .
Reply: Y

Query: Check if Kd falls below 20 nM for CC(C)(C)c1ccc(COc2ccc(C3O[C@H](CO)[C@@H](O)[C@H](O)[C@@H]3O)cc2)cc1 (stereo partly shown) .
Reply: Y

Query: Check if Kd falls below 20 nM for COc1ccc(CCOc2ccc(C3O[C@H](CO)[C@@H](O)[C@H](O)[C@@H]3O)cc2)cc1 (stereo partly shown) .
Reply: Y

Query: Check if Kd falls below 20 nM for `CNC(=O)c1cccc(Oc2ccc(F)c([C@H]3O[C@H](CO)[C@@H](O)[C@H](O)[C@@H]3O)c2)c1` .
Reply: Y

Query: Check if Kd falls below 20 nM for `OC[C@H]1O[C@H](c2cccc(O)c2F)[C@@H](O)[C@@H](O)[C@@H]1O` .
Reply: N

Query: Check if Kd falls below 20 nM for `OCc1cccc([C@H]2O[C@H](CO)[C@@H](O)[C@H](O)[C@@H]2O)c1` .
Reply: N

Query: Check if Kd falls below 20 nM for `O=[N+]([O-])c1ccc(Oc2cccc([C@H]3O[C@H](CO)[C@@H](O)[C@H](O)[C@@H]3O)c2)cn1` .
Reply: Y

###

Target: FimH-CRD (Escherichia coli, UniProt P08191)
Construct: The first 177 amino acids of the FimH protein; thrombin tag (printed as 'fusion protein with thrombin') (cleaved yes)
Sequence (P08191 22-177): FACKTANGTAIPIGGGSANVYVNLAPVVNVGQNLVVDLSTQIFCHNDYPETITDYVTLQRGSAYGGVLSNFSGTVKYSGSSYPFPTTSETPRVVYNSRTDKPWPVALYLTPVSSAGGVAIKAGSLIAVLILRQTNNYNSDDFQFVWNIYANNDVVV
Assay: Competitive binding assay by fluorescence polarization, assay 1 (compounds prepared by manual serial dilution)
A collection of molecules and their measured pIC50
pIC50 is defined as minus the log10 of a concentration measured in mol/L.

Please review the entries below; each comes with its answer.
COc1ccc(C2O[C@H](CO)[C@@H](O)[C@H](O[C@H]3O[C@H](CO)[C@@H](O)[C@H](O)[C@@H]3O)[C@@H]2O)cc1Oc1ccc(NC(=O)C(C)C)cc1 (stereo partly drawn) [Compound 290] :: 7.54
O=C(NCCc1ccccc1)c1cccc([C@H]2O[C@H](CO)[C@@H](O)[C@H](O)[C@@H]2O)c1 [Compound 34] :: 6.91

Please find the next molecule below.
Query: pIC50 lookup needed for CC(C)C(=O)Nc1ccc(Oc2cccc([C@H]3O[C@H](CO)[C@@H](O)[C@H](O[C@H]4O[C@H](CO)[C@@H](O)[C@H](O)[C@@H]4O)[C@@H]3O)c2)cc1 [Compound 273] , thanks.
Reply: 7.42
